# System: MDA-MB-231 (human breast cancer) cell line
# test-summary: MTT cell viability assay in MDA-MB-231 cells
# Assay type: cell-based
# conditions: Homo sapiens, MDA-MB-231, 72 h, MDA-MB-231, 50 µM, 72 h, MTT; read-out: Cell Viability (%) ± SD
recorded-metric: viability at 50 µM (%)
Quick note: give the figure in %, leave out the unit.

OC[C@H]1O[C@@H](CC2=NNC(c3c[nH]c4ccc(Cl)cc34)C2)[C@H](O)[C@@H](O)[C@H]1O (stereo partly shown) [Compound 28] = 63.4
OC[C@H]1O[C@@H](Cc2cc(-c3c[nH]c4ccc(Cl)cc34)on2)[C@H](O)[C@@H](O)[C@H]1O [Compound 40] = 87.9
OC[C@H]1O[C@@H](Cc2cc(-c3c[nH]c4ccc(Br)cc34)on2)[C@H](O)[C@@H](O)[C@H]1O [Compound 39] = 90.3
O=C(/C=C/c1c[nH]c2ccc([N+](=O)[O-])cc12)C[C@@H]1O[C@H](CO)[C@@H](O)[C@H](O)[C@H]1O [Compound 18] = 69.8
O=C(/C=C/c1c[nH]c2ccc(Cl)cc12)C[C@@H]1O[C@H](CO)[C@@H](O)[C@H](O)[C@@H]1O [Compound 20] = 62

The reported viability at 50 µM of the compound OC[C@H]1O[C@@H](Cc2cc(-c3c[nH]c4ccccc34)on2)[C@@H](O)[C@@H](O)[C@@H]1O [Compound 41] was 74

The reported viability at 50 µM of the compound OC[C@H]1O[C@@H](Cc2cc(-c3c[nH]c4ccccc34)on2)[C@H](O)[C@@H](O)[C@H]1O [Compound 37] was 64.4

Origin of the recorded values: paper PMC7170901
